system: E. aerogenes X816; experiment: In vitro antibacterial assay (MIC); format: cell-based; conditions: Klebsiella aerogenes, X816, E. aerogenes X816; iron deficient media; duplicate assays
Catalogue of compounds with associated MIC

compound	MIC
C[C@H]1[C@H](NC(=O)/C(=N\OC(C)(C)C(=O)O)c2csc(N)n2)C(=O)N1S(=O)(=O)O [Aztreonam 9a, aztreonam, reference compound]	1.6 µM
C[C@H]1[C@H](NC(=O)/C(=N\OC(C)(C)C(=O)NCCNC(=O)CN(CCCCNC(=O)c2cccc(O)c2O)C(=O)c2cccc(O)c2O)c2csc(N)n2)C(=O)N1S(=O)(=O)O	0.05 µM
C[C@H]1[C@H](NC(=O)/C(=N\OC(C)(C)C(=O)NCCNC(=O)CN(CCCCNC(=O)c2ccc(O)c(O)c2Cl)C(=O)c2ccc(O)c(O)c2Cl)c2csc(N)n2)C(=O)N1S(=O)(=O)O	0.8 µM
C[C@H]1[C@H](NC(=O)/C(=N\OC(C)(C)C(=O)NOCC(=O)NCCNC(=O)CN(CCCCNC(=O)c2cccc(O)c2O)C(=O)c2cccc(O)c2O)c2csc(N)n2)C(=O)N1S(=O)(=O)O	0.05 µM
